# Tested on: INH-R1 (Mtb strain resistant to isoniazid)
# procedureSummary: microbe, parasite or virus in culture
# Type: cell-based
# experimentalContext: Mycobacterium tuberculosis
Exam item: assign yes (1) to entries whose MIC is below 60 µM and no (0) to entries at or above 60 µM. Note that a value of exactly 60 µM receives no (0).

stdin: Please let me know if C[C@H]1COc2c(N3CCN(C)CC3)c(F)cc3c(=O)c(C(=O)O)cn1c23 [Compound C3, Levofloxacin, reference compound] shows MIC below 60 µM.
stdout: yes (1)

stdin: Please let me know if NNC(=O)c1ccncc1 [Isoniazid, reference compound] shows MIC below 60 µM.
stdout: no (0)

stdin: Please let me know if O=C(C[n+]1ccn(Cc2cccc(Cn3cc[n+](CC(=O)c4ccc([N+](=O)[O-])cc4)c3)n2)c1)c1ccc([N+](=O)[O-])cc1.[Br-].[Br-] [Compound 4f] shows MIC below 60 µM.
stdout: yes (1)

stdin: Please let me know if O=C(C[n+]1cn(Cc2cccc(Cn3c[n+](CC(=O)c4ccc([N+](=O)[O-])cc4)c4ccccc43)n2)c2ccccc21)c1ccc([N+](=O)[O-])cc1.[Br-].[Br-] [Compound 6f] shows MIC below 60 µM.
stdout: yes (1)

stdin: Please let me know if O=C(C[n+]1cn(Cc2cccc(Cn3c[n+](CC(=O)c4ccccc4)c4ccccc43)n2)c2ccccc21)c1ccccc1.[Br-].[Br-] [Compound 6c] shows MIC below 60 µM.
stdout: no (0)

stdin: Please let me know if O=[N+]([O-])c1cn(Cc2cccc(Cn3cnc([N+](=O)[O-])c3)n2)cn1 [Compound 2b] shows MIC below 60 µM.
stdout: no (0)

---

# Tested on: FQ-R1 (Mtb strain resistant to fluoroquinolone)
# procedureSummary: microbe, parasite or virus in culture
# Assay type: cell-based
# experimentalContext: Mycobacterium tuberculosis
For each record, write down the corresponding IC50.
Give the number; µM is assumed, so skip it.

stdin: Form entry - test system: FQ-R1 (Mtb strain resistant to fluoroquinolone); read-out: IC50; molecule: O=C(C[n+]1ccn(Cc2cccc(Cn3cc[n+](CC(=O)c4ccc([N+](=O)[O-])cc4)c3)n2)c1)c1ccc([N+](=O)[O-])cc1.[Br-].[Br-] [Compound 4f]
stdout: 49

stdin: Form entry - test system: FQ-R1 (Mtb strain resistant to fluoroquinolone); read-out: IC50; molecule: NNC(=O)c1ccncc1 [Isoniazid, reference compound]
stdout: 0.36

stdin: Form entry - test system: FQ-R1 (Mtb strain resistant to fluoroquinolone); read-out: IC50; molecule: C[C@H]1COc2c(N3CCN(C)CC3)c(F)cc3c(=O)c(C(=O)O)cn1c23 [Compound C3, Levofloxacin, reference compound]
stdout: 12

stdin: Form entry - test system: FQ-R1 (Mtb strain resistant to fluoroquinolone); read-out: IC50; molecule: O=C(C[n+]1cn(Cc2cccc(Cn3c[n+](CC(=O)c4ccc([N+](=O)[O-])cc4)c4ccccc43)n2)c2ccccc21)c1ccc([N+](=O)[O-])cc1.[Br-].[Br-] [Compound 6f]
stdout: 18

stdin: Form entry - test system: FQ-R1 (Mtb strain resistant to fluoroquinolone); read-out: IC50; molecule: O=C(C[n+]1cn(Cc2cccc(Cn3c[n+](CC(=O)c4ccccc4)c4ccccc43)n2)c2ccccc21)c1ccccc1.[Br-].[Br-] [Compound 6c]
stdout: 40

stdin: Form entry - test system: FQ-R1 (Mtb strain resistant to fluoroquinolone); read-out: IC50; molecule: O=[N+]([O-])c1cn(Cc2cccc(Cn3cnc([N+](=O)[O-])c3)n2)cn1 [Compound 2b]
stdout: 66

stdin: Form entry - test system: FQ-R1 (Mtb strain resistant to fluoroquinolone); read-out: IC50; molecule: CO[C@H]1/C=C/O[C@@]2(C)Oc3c(C)c(O)c4c(O)c(c(/C=N/N5CCN(C)CC5)c(O)c4c3C2=O)NC(=O)/C(C)=C\C=C\[C@H](C)[C@H](O)[C@@H](C)[C@@H](O)[C@@H](C)[C@H](OC(C)=O)[C@@H]1C [Rifampicin, reference compound]
stdout: 0.013

---

# Tested on: INH-R1 (Mtb strain resistant to isoniazid)
# procedureSummary: microbe, parasite or virus in culture
# Format: cell-based
# experimentalContext: Mycobacterium tuberculosis
readoutKind: IC90 (µM)
Give the number; µM is assumed, so skip it.

stdin: Form entry - test system: INH-R1 (Mtb strain resistant to isoniazid); read-out: IC90; compound: O=C(C[n+]1cn(Cc2cccc(Cn3c[n+](CC(=O)c4ccc([N+](=O)[O-])cc4)c4ccccc43)n2)c2ccccc21)c1ccc([N+](=O)[O-])cc1.[Br-].[Br-]
stdout: 21

stdin: Form entry - test system: INH-R1 (Mtb strain resistant to isoniazid); read-out: IC90; compound: O=C(C[n+]1cn(Cc2cccc(Cn3c[n+](CC(=O)c4ccccc4)c4ccccc43)n2)c2ccccc21)c1ccccc1.[Br-].[Br-]
stdout: 170

stdin: Form entry - test system: INH-R1 (Mtb strain resistant to isoniazid); read-out: IC90; compound: O=[N+]([O-])c1cn(Cc2cccc(Cn3cnc([N+](=O)[O-])c3)n2)cn1
stdout: 90

stdin: Form entry - test system: INH-R1 (Mtb strain resistant to isoniazid); read-out: IC90; compound: C[C@H]1COc2c(N3CCN(C)CC3)c(F)cc3c(=O)c(C(=O)O)cn1c23 [Compound C3, Levofloxacin, reference compound]
stdout: 1.4

stdin: Form entry - test system: INH-R1 (Mtb strain resistant to isoniazid); read-out: IC90; compound: O=C(C[n+]1ccn(Cc2cccc(Cn3cc[n+](CC(=O)c4ccc([N+](=O)[O-])cc4)c3)n2)c1)c1ccc([N+](=O)[O-])cc1.[Br-].[Br-]
stdout: 52

stdin: Form entry - test system: INH-R1 (Mtb strain resistant to isoniazid); read-out: IC90; compound: CO[C@H]1/C=C/O[C@@]2(C)Oc3c(C)c(O)c4c(O)c(c(/C=N/N5CCN(C)CC5)c(O)c4c3C2=O)NC(=O)/C(C)=C\C=C\[C@H](C)[C@H](O)[C@@H](C)[C@@H](O)[C@@H](C)[C@H](OC(C)=O)[C@@H]1C [Rifampicin, reference compound]
stdout: 0.022

---

# Tested on: INH-R2 (Mtb strain resistant to isoniazid)
# procedureSummary: microbe, parasite or virus in culture
# Format: cell-based
# experimentalContext: Mycobacterium tuberculosis
For each record, write down the corresponding IC50.

stdin: What value of IC50 has been reported for the following compound? O=C(C[n+]1ccn(Cc2cccc(Cn3cc[n+](CC(=O)c4ccc([N+](=O)[O-])cc4)c3)n2)c1)c1ccc([N+](=O)[O-])cc1.[Br-].[Br-]
stdout: 39 µM

stdin: What value of IC50 has been reported for the following compound? O=C(C[n+]1cn(Cc2cccc(Cn3c[n+](CC(=O)c4ccccc4)c4ccccc43)n2)c2ccccc21)c1ccccc1.[Br-].[Br-]
stdout: 42 µM

stdin: What value of IC50 has been reported for the following compound? NNC(=O)c1ccncc1 [Isoniazid, reference compound]
stdout: > 200 µM

stdin: What value of IC50 has been reported for the following compound? C[C@H]1COc2c(N3CCN(C)CC3)c(F)cc3c(=O)c(C(=O)O)cn1c23 [Compound C3, Levofloxacin, reference compound]
stdout: 0.84 µM

stdin: What value of IC50 has been reported for the following compound? O=C(C[n+]1cn(Cc2cccc(Cn3c[n+](CC(=O)c4ccc([N+](=O)[O-])cc4)c4ccccc43)n2)c2ccccc21)c1ccc([N+](=O)[O-])cc1.[Br-].[Br-]
stdout: 13 µM

stdin: What value of IC50 has been reported for the following compound? CO[C@H]1/C=C/O[C@@]2(C)Oc3c(C)c(O)c4c(O)c(c(/C=N/N5CCN(C)CC5)c(O)c4c3C2=O)NC(=O)/C(C)=C\C=C\[C@H](C)[C@H](O)[C@@H](C)[C@@H](O)[C@@H](C)[C@H](OC(C)=O)[C@@H]1C [Rifampicin, reference compound]
stdout: 0.0047 µM

stdin: What value of IC50 has been reported for the following compound? c1cc(Cn2cnc3ccccc32)nc(Cn2cnc3ccccc32)c1
stdout: > 50 µM

stdin: What value of IC50 has been reported for the following compound? O=[N+]([O-])c1cn(Cc2cccc(Cn3cnc([N+](=O)[O-])c3)n2)cn1
stdout: 24 µM

---

For each record, write down the corresponding MIC.
# Test system: RIF-R2 (Mtb strain resistant to rifampicin)
# procedureSummary: microbe, parasite or virus in culture
# Format: cell-based
# experimentalContext: Mycobacterium tuberculosis

stdin: What value of MIC has been reported for the following compound? C[C@H]1COc2c(N3CCN(C)CC3)c(F)cc3c(=O)c(C(=O)O)cn1c23 [Compound C3, Levofloxacin, reference compound]
stdout: 1.1 µM

stdin: What value of MIC has been reported for the following compound? NNC(=O)c1ccncc1 [Isoniazid, reference compound]
stdout: 0.62 µM

stdin: What value of MIC has been reported for the following compound? O=C(C[n+]1cn(Cc2cccc(Cn3c[n+](CC(=O)c4ccc([N+](=O)[O-])cc4)c4ccccc43)n2)c2ccccc21)c1ccc([N+](=O)[O-])cc1.[Br-].[Br-] [Compound 6f]
stdout: 30 µM
